Measured % phytotoxicity LOLPE, post-emergence application values are reported for all entries that follow.
# System: Lolium perenne (LOLPE)
# method.description: Test 1 glasshouse herbicide test, post-emergence application (Table B1)
# Assay type: in vivo
# assay.setup: 250 g/ha unless otherwise stated, evaluated after 13 days, five-point scale

Some molecules with recorded % phytotoxicity LOLPE, post-emergence application:
molecule="[O-][S+](CCC(F)(F)F)c1c(F)cccc1Oc1ncc(Cl)cn1 (stereo not shown) [Compound A8]" recorded_value="1 (1=0 to 20%)"
molecule="O=S(=O)(CCC(F)(F)F)c1ccccc1Oc1ncc(Cl)cn1 [Compound A3]" recorded_value="4 (4=61 to 80%)"
molecule="N#Cc1cccc(Oc2ncc(Cl)cn2)c1S(=O)(=O)CCCC(F)(F)F [Compound A30]" recorded_value="5 (5=81 to 100%)"
molecule="O=S(=O)(CCC(F)(F)F)c1c(Cl)cccc1Oc1ncc(Cl)cn1 [Compound A12]" recorded_value="5 (5=81 to 100%)"
molecule="FC(F)(F)CCCSc1c(Cl)cccc1Oc1ncc(Cl)cn1 [Compound A25]" recorded_value="5 (5=81 to 100%)"

As a next step, examine the molecule that follows.
## Task Consider the molecule FC(F)(F)CCSc1c(Cl)cccc1Oc1ncc(Cl)cn1 [Compound A10] and give its measured % phytotoxicity LOLPE, post-emergence application.
## Result 5 (5=81 to 100%)
